# test.system: UniProt D5DKI8
# Sequence (D5DKI8 1-404): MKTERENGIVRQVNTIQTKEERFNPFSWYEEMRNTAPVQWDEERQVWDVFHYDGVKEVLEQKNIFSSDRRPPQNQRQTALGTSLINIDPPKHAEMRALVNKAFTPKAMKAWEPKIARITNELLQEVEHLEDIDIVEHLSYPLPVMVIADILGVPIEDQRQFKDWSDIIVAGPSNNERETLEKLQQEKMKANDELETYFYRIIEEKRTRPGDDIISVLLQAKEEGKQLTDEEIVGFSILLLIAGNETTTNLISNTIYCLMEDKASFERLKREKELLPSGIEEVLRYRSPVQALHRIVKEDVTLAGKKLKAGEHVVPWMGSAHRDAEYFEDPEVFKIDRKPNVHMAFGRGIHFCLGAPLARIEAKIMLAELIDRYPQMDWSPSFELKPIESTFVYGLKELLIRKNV
# protocol: co-crystal structure
# Assay type: binding
property.label: Kd (µM)
Quick note: give the figure in µM, leave out the unit.

What measured Kd goes with C[C@]12C[C@H](O)[C@H]3[C@@H](CCC4=CC(=O)CC[C@@]43C)[C@@H]1CC[C@@H]2C(=O)CO [compound 4, corticosterone] ?
91
